Attribution: paper PMC10076185

pKd: −log10 of the molar value.
Apo-M (Homo sapiens, UniProt O95445): reported pKd for various compounds.
Sequence (O95445 whole entry): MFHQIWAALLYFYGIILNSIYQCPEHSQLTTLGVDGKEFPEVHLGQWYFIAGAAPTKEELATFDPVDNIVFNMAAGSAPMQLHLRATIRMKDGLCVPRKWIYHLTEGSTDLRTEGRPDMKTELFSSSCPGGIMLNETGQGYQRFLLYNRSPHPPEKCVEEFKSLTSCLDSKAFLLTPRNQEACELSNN
property measured: pKd

{"compound": "CC1=C[C@H](O)CC(C)(C)[C@H]1/C=C/C(C)=C/C=C/C(C)=C/C=C/C=C(C)/C=C/C=C(C)/C=C/C1=C(C)C[C@@H](O)CC1(C)C [Lutein]", "subject of test": "Apo-M (Homo sapiens, UniProt O95445)", "pKd": 4.46}
{"compound": "CC1=C(/C=C/C(C)=C/C=C/C(C)=C/C=C/C=C(C)/C=C/C=C(C)/C=C/C2=C(C)C[C@H](O)CC2(C)C)C(C)(C)C[C@H](O)C1 [meso-Zeaxanthin]", "subject of test": "Apo-M (Homo sapiens, UniProt O95445)", "pKd": 4.45}

1. CC1=C(/C=C/C(C)=C/C=C/C(C)=C/C=C/C=C(C)/C=C/C=C(C)/C=C/C2=C(C)CCCC2(C)C)C(C)(C)CCC1 [β-Carotene]
2. CC1=C(/C=C/C(C)=C/C=C/C(C)=C/C=C/C=C(C)/C=C/C=C(C)/C=C/C2=C(C)C[C@@H](O)CC2(C)C)C(C)(C)C[C@H](O)C1 [Zeaxanthin]
Of the pair 1 and 2 , name the member with the lesser recorded pKd. Refer to your chosen entry by its label in the reply.
2
(2: 4.09, 1: 7.30)
